Consider the following binders; for each one, report its A450.
Target: T1, Mouse Id1: Histidine (mouse, UniProt P20067-2 1-148, limits assumed)
T1 construct: Fusion protein made in E. coli from vector pGW07; also called m-Id1-His; not shown: His tag
T1 sequence (looked up): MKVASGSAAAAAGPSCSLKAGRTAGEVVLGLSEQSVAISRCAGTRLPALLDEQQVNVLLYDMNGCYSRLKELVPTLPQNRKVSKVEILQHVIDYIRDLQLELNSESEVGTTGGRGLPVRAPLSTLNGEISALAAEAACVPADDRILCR
Experiment: ELISA, Ab 0.250 µg/ml
Numbers only, in A450.

See these solved cases before continuing.
Enquiry: May I ask what A450 has been recorded for rabbit monoclonal anti-mouse/human Id3, clone #BCH-4/#16-1 (antibody, V domains shown, Rabbit IgG from a rabbit hybridoma; also called m/h Id3 MoAb 16-1) VH: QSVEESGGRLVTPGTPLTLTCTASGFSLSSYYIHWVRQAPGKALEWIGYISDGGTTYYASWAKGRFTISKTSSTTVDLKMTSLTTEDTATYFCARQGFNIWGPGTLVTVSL VL: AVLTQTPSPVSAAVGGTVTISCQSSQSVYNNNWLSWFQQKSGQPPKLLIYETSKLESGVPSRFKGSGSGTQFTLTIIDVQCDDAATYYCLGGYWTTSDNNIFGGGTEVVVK ?
Return: 0.047

Enquiry: May I ask what A450 has been recorded for rabbit monoclonal anti-human Id3, clone #BCH-4/#3-3 (antibody, V domains shown, Rabbit IgG from a rabbit hybridoma; also called h Id3 MoAb 3-3) VH: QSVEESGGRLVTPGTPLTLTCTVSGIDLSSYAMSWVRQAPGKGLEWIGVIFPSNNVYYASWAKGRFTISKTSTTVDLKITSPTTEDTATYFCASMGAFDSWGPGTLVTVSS VL: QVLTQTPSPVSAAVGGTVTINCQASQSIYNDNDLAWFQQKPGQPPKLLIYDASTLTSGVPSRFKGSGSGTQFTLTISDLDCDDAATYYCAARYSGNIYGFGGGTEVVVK ?
Return: 0.048

Enquiry: May I ask what A450 has been recorded for rabbit monoclonal anti-mouse/human Id3, clone #BCH-4/#17-3 (antibody, V domains shown, Rabbit IgG from a rabbit hybridoma; also called m/h Id3 MoAb 17-3; BCH-3/#17-3) VH: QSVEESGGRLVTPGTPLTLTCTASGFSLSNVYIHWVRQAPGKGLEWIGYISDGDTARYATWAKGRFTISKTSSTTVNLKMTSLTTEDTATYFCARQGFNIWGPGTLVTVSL VL: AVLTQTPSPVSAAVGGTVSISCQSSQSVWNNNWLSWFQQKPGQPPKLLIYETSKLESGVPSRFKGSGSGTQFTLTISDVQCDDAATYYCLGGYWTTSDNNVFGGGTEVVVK ?
Return: 0.052

Enquiry: May I ask what A450 has been recorded for rabbit monoclonal anti-mouse/human Id3, clone #BCH-4/#42-1 (antibody, V domains shown, Rabbit IgG from a rabbit hybridoma; also called m/h Id3 MoAb 42-1) VH: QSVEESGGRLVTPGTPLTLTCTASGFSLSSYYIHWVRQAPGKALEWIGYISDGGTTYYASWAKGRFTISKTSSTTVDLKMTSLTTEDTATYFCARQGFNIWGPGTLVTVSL VL: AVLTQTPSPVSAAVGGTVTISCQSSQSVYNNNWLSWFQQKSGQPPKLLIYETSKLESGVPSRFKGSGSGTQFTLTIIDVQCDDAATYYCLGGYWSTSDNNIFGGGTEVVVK ?
Return: 0.054

# input for lookup
Enquiry: May I ask what A450 has been recorded for rabbit monoclonal anti-mouse/human Id3, clone #BCH-4/#6-1 (antibody, V domains shown, Rabbit IgG from a rabbit hybridoma; also called m/h Id3 MoAb 6-1) VH: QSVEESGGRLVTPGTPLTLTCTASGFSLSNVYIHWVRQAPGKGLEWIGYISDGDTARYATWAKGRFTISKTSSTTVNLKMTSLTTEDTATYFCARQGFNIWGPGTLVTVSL VL: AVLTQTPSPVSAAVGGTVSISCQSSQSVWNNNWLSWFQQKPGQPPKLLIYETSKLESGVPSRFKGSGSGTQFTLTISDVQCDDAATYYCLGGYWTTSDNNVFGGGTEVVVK ?
Return: 0.048
